Provenance of the data: paper PMC10138723

- System: HepG2 (human hepatic cancer cells)
- Assay: CCK-8 cytotoxic assay, HepG2
- Assay type: cell-based
- Measurement context: HepG2 cells, CCK-8, 24 h, read-out: IC50 ± SD, HepG2
Readout label: IC50

Compound	IC50
CC(=O)C1=CCC2C3CC=C4C[C@@H](O[C@@H]5O[C@H](CO)[C@@H](O[C@@H]6O[C@@H](CO)[C@H](O)[C@H]6O)[C@H](O)[C@H]5O[C@@H]5O[C@@H](C)[C@H](O)[C@@H](O)[C@H]5O)CC[C@]4(C)C3CC[C@]12C (stereo partly drawn) [Compound 4]	> 50 µM
C=C1C(=O)OC2CC3C4CC=C5CC(OC6OC(CO)C(OC7OC(CO)C(O)C7O)C(O)C6OC6OC(C)C(O)C(O)C6O)CCC5(C)C4CCC3(C)C12 (stereo not drawn) [Compound 3]	> 50 µM

# input Please list IC50 recorded for the compound CC(=O)C1=CCC2C3CC=C4C[C@@H](O[C@@H]5O[C@H](CO)[C@@H](O)[C@H](O)[C@H]5O[C@@H]5O[C@@H](C)[C@H](O)[C@@H](O)[C@H]5O)CC[C@]4(C)C3CC[C@]12C (stereo partly drawn) [Compound 10, spongipregnolosides A]
# output > 50 µM

# input Please list IC50 recorded for the compound CC(=O)C1=CC[C@H]2[C@@H]3CC=C4C[C@@H](O[C@@H]5O[C@H](CO)[C@@H](O[C@@H]6O[C@@H](C)[C@H](O)[C@@H](O)[C@H]6O)[C@H](O)[C@H]5O[C@@H]5O[C@@H](C)[C@H](O)[C@@H](O)[C@H]5O)CC[C@]4(C)[C@H]3CC[C@]12C [Compound 11, hypoglaucin H]
# output > 50 µM

# input Please list IC50 recorded for the compound C=C1C(=O)OC2CC3C4CC=C5CC(OC6OC(CO)C(OC7OC(C)C(O)C(O)C7O)C(O)C6OC6OC(C)C(O)C(O)C6O)CCC5(C)C4CCC3(C)C12 (stereo not drawn) [Compound 5, chonglouoside SL-8]
# output > 50 µM

# input Please list IC50 recorded for the compound Cc1c(CCC(C)COC2OC(CO)C(O)C(O)C2O)ccc2c1C1(C)CCC3C(CC=C4CC(OC5OC(CO)C(OC6OC(C)C(OC7OC(C)C(O)C(O)C7O)C(O)C6O)C(O)C5OC5OC(C)C(O)C(O)C5O)CCC43C)C1C2 (stereo not drawn) [Compound 7, parispseudoside A]
# output > 50 µM

# input Please list IC50 recorded for the compound Cc1c(CCC(C)COC2OC(CO)C(O)C(O)C2O)ccc2c1C1(C)CCC3C(CC=C4CC(OC5OC(CO)C(OC6OC(CO)C(O)C6O)C(O)C5OC5OC(C)C(O)C(O)C5O)CCC43C)C1C2 (stereo not drawn) [Compound 8]
# output > 50 µM

# input Please list IC50 recorded for the compound Cc1c(CCC(C)COC2OC(CO)C(O)C(O)C2O)ccc2c1C1(C)CCC3C(CC=C4CC(OC5OC(CO)C(OC6OC(C)C(O)C(O)C6O)C(O)C5OC5OC(C)C(O)C(O)C5O)CCC43C)C1C2 (stereo not drawn) [Compound 9, aethioside A]
# output > 50 µM

---

- Tested on: LN229 (human glioma cells)
- Assay: CCK-8 cytotoxic assay, LN229
- Assay type: cell-based
- Measurement context: LN-229, LN229 cells, CCK-8, 24 h, read-out: IC50 ± SD, LN229
Readout label: IC50 (µM)
// return numeric value only (unit: µM, not printed)

# input Please list IC50 recorded for the compound CC1CCC2(OC1)OC1CC3C4CC=C5CC(OC6OC(COC7(CO)OC(CO)C(O)C7O)C(OC7OC(CO)C(O)C7O)C(O)C6OC6OC(C)C(O)C(O)C6O)CCC5(C)C4CCC3(C)C1C2C (centres unmarked)
# output 15.4
